Value source: ChEMBL document CHEMBL1146687

- Tested on: Streptococcus pneumoniae
- experimentDescription: In vitro antibacterial activity against Streptococcus pneumoniae
- Assay type: functional
measuredParameter: MIC
Report as: number unit

Prompt: Give reported MIC for C=C(NC(=O)c1csc(-c2nc3c(cc2OCC(=O)N(C)C)-c2nc(cs2)C(=O)N[C@@H]([C@@H](C)O)C(=O)N/C(=C(\C)OC)c2nc(cs2)C(=O)N[C@@H]2c4nc(cs4)C(=O)N[C@@H](COC(=O)c4c5c6c(cccc6n4OCC(=O)N(C)C)COC(=O)[C@@H](O[C@H]4C[C@](C)(O)[C@H](N(C)C)[C@H](C)O4)[C@H]2OC5)c2nc-3cs2)n1)C(N)=O (Streptococcus pneumoniae)
Response: 0.125 µg/mL
